Listed compounds paired with reported LAPHEG 50 (ug/cm2), percent control
System: Beet Armyworm (Spodoptera exigua)
Assay: Insecticidal diet-surface test for beet armyworm
Format: in vivo
Settings: second-instar beet armyworm, 50 ug/cm2 on diet surface, 5 days after treatment, dead insects of 8
Could you give the number and then its unit, please?

Fc1cnc(N/N=C/c2ccc(Cl)cc2)nc1Nc1ccc(OC(F)(F)F)cc1	100%

Field LAPHEG 50 (ug/cm2), percent control (entry OC(c1cccc(Nc2cc(Cl)nc(N/N=C/c3ccc(OC(F)(F)F)cc3)n2)c1)C(F)(F)F (stereo not shown) ) reads 88%

Field LAPHEG 50 (ug/cm2), percent control (entry Fc1cnc(N/N=C/c2ccc(OC(F)(F)C(F)F)cc2)nc1Nc1ccc(OC(F)(F)F)cc1 ) reads 0%

Field LAPHEG 50 (ug/cm2), percent control (entry Clc1cccc(Nc2cc(Cl)nc(N/N=C/c3ccc(N4CCCC4)cc3)n2)c1 ) reads 0%

----------
Listed compounds paired with reported LAPHEG 50 (ug/cm2), percent control
System: Beet Armyworm (Spodoptera exigua)
Experiment: Insecticidal diet-surface test for beet armyworm
Type: in vivo
Settings: second-instar beet armyworm, 50 ug/cm2 on diet surface, 5 days after treatment, dead insects of 8
Give the number; % is assumed, so skip it.

The following compounds have reported results that may help.
FC(F)(F)c1ccc(/C=N/Nc2nc(Cl)cc(Nc3cccc(Br)c3)n2)cc1	100
Clc1ccc(/C=N/Nc2nc(Cl)cc(Nc3cccc(Cl)c3)n2)cc1	0
Fc1ccc(Nc2cc(Cl)nc(N/N=C/c3ccc(Cl)cc3)n2)cc1C(F)(F)F	100

Field LAPHEG 50 (ug/cm2), percent control (entry FC(F)C(F)(F)Oc1ccc(/C=N/Nc2nc(Cl)cc(Nc3ccc(OC(F)(F)C(F)F)cc3)n2)cc1 ) reads 100

Field LAPHEG 50 (ug/cm2), percent control (entry OC(c1ccc(Nc2cc(F)nc(NN=Cc3ccc(OC(F)(F)C(F)F)cc3)n2)cc1)(C(F)(F)F)C(F)(F)F ) reads 100

Field LAPHEG 50 (ug/cm2), percent control (entry Fc1cnc(N/N=C/c2ccc(OC(F)(F)F)cc2)nc1Nc1ccc(OC(F)(F)F)cc1 ) reads 0

Field LAPHEG 50 (ug/cm2), percent control (entry FC(F)(F)c1ccc(/C=N/Nc2nc(Cl)cc(Nc3cccc(Cl)c3)n2)cc1 ) reads 100

Field LAPHEG 50 (ug/cm2), percent control (entry Fc1cc(Nc2ccc(OC(F)(F)C(F)F)cc2)nc(NN=Cc2ccc(OC(F)(F)C(F)F)cc2)n1 ) reads 50

Field LAPHEG 50 (ug/cm2), percent control (entry Fc1ccc(Nc2nc(N/N=C/c3ccc(OC(F)(F)F)cc3)nc(Cl)c2Cl)cc1C(F)(F)F ) reads 0

Field LAPHEG 50 (ug/cm2), percent control (entry CN(/N=C/c1ccc(OC(F)(F)C(F)F)cc1)c1nc(Cl)cc(Nc2ccc(F)c(C(F)(F)F)c2)n1 ) reads 100

Field LAPHEG 50 (ug/cm2), percent control (entry FC(F)C(F)(F)Oc1ccc(Nc2cc(Cl)nc(N/N=C/c3ccc(Cl)cc3)n2)cc1 ) reads 63

Field LAPHEG 50 (ug/cm2), percent control (entry Fc1cnc(Nc2cccc(C(F)(F)F)c2)nc1NN=Cc1ccc(OC(F)(F)F)cc1 ) reads 100
